Listed molecules paired with reported IC50
- Study target: Arabidopsis HPPD single point mutant SEQ ID No. 44 (Arabidopsis thaliana, UniProt P93836, L368M)
- Sequence (P93836 other isoform, or with tags, fused parts or gaps L368M): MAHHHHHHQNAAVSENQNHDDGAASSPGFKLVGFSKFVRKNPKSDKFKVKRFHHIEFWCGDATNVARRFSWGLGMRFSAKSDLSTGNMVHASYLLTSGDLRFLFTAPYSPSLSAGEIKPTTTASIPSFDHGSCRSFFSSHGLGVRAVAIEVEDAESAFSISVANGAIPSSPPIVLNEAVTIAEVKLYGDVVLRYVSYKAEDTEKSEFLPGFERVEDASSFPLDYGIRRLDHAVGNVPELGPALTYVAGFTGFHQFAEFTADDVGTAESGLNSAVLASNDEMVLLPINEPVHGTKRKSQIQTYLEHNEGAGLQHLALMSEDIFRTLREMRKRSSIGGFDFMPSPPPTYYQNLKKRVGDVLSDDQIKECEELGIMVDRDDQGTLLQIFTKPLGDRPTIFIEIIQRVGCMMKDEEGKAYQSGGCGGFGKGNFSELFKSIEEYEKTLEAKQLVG
- Test protocol: biochemical
State the answer as a number, implicitly in µM.

CS(=O)(=O)c1ccc(C(=O)C2C(=O)CCCC2=O)c(Cl)c1 : 6.31

Fill blank: measured IC50 of the molecule COCCOCc1nc(C(F)(F)F)ccc1C(=O)C1=C(O)C2CCC(C2)C1=O (stereo not shown) is ____.
31.6
